Entry source: ChEMBL document CHEMBL2163302

SUBJECT_OF_TEST: Gamma-aminobutyric acid receptor subunit beta-3 (Homo sapiens)
Sequence (P28472 whole entry): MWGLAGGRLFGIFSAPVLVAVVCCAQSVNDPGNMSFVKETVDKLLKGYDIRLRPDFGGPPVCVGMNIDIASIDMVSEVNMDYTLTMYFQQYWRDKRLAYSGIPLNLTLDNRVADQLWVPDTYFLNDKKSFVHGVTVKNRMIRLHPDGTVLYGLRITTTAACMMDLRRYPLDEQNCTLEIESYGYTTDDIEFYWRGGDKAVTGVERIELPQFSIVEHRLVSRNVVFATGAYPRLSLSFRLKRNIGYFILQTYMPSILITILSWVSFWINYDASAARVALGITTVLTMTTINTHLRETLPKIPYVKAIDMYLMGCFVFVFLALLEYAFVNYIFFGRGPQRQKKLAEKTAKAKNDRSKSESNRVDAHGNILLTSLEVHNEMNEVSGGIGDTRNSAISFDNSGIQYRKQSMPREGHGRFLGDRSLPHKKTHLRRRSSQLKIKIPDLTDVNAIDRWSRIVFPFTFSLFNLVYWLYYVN
TEST_DESCRIPTION: biochemical
PARAMETER_MEASURED: IC50
Returns: string containing the number followed by the unit.

Form: Entry = CCCC(C)C1(CC)C(=O)NC(=O)NC1=O (stereo unspecified) | System = Gamma-aminobutyric acid receptor subunit beta-3 (Homo sapiens) | IC50 = ____
88 µM

* * *

TEST_DESCRIPTION: Aqueous solubility in 0.01 M Tris/HCl buffer at pH 7.4 by HPLC
Type: physicochemical
TEST_CONTEXT: 0.01 M Tris/HCl buffer, read-out: solubility
PARAMETER_MEASURED: solubility
Returns: string containing the number followed by the unit.

Request the reported solubility associated with CCC1(c2ccccc2)C(=O)NC(=O)N(C)C1=O (stereo unspecified)
600 µM
